target: DR1Dw1 (Homo sapiens, UniProt P01903+P01911, A100R/D57E/F55L/F60I/F76Y/I96L/L162R/M171V/P40L/Q125E/R42F/V115G/Y59C); construct: these are Drosophila transmembrane DR; made in house; host or cells: Drosophila (cells); assay: Inhibition of biotinylated RMBP 90-102 peptide binding to MHC class II DR1 (europium-streptavidin capture assay); details: incubation at 37° C. for 5 hours, 0.3 nM biotinylated RMBP 90-102, 1.25 nM DR1Dw1, pH 6.5, read-out: IC50 /μM @ 5h
measured.quantity: IC50 (µM)
Please reply with the bare figure in µM and do not write the unit itself.

Q: Recorded IC50 of CCCCN(NC(=O)C(CCC)NC(=O)C(CCCCN)NCCCC1CCCCC1)C(=O)OCC (stereo not drawn) [Example 50] , please.
Result: 0.26

Q: # IC50 lookup, item CCCC(NC(=O)C(CCCCN)NCCCC1CCCCC1)C(=O)NC(CC(C)C)C(N)=O (stereo not drawn) [Example 40, α-[3-Cyclohexylpropyl]-Lys-Nva-Leu-NH2]
Result: 0.059

Q: I am curious: what IC50 value has been reported for CCCC(NC(=O)C(CCCCN)NCCCC1CCCCC1)C(=O)NN(CC(C)C)C(=O)OCC (stereo not drawn) [Example 48] ?
Result: 0.68

Q: Quick one: IC50 of CCCC(NC(=O)C(CCCCN)NC(=O)CC(C)C1CCCCC1)C(=O)NC(CC(C)C)C(N)=O (stereo not drawn) [Example 36] ?
Result: 0.187

Q: Item CCCC(NC(=O)C(CCCCN)NC(=O)CC(C)c1ccccc1)C(=O)NC(CC(C)C)C(N)=O (stereo not drawn) [Example 34] has what recorded IC50?
Result: 1.25

Q: Quick one: IC50 of CCCCN(NC(=O)C(CCC)NC(=O)C(CCCCN)NCC1CCc2ccccc2C1)C(=O)OCC (stereo not drawn) [Example 52] ?
Result: 0.14

Q: Recorded IC50 of CCCC(NC(=O)C(Cc1cccnc1)NCCCC1CCCCC1)C(=O)NC1CCCCNC1=O (stereo not drawn) [Example 5] , please.
Result: 1.43

Q: What value of measured IC50 is listed for CCC[C@H](NC(=O)[C@H](CCCCN)NC(=O)C=Cc1ccccc1C)C(=O)N[C@@H](CC(C)C)C(N)=O [Example 13, α-[2-methylcinnamoyl]-Lys-Nva-Leu-NH2] ?
Result: 1.7

Q: Data request, read-out IC50, for CCCC(NC(=O)C(C)(C)NCCCC1CCCCC1)C(=O)NC(CC(C)C)C(N)=O (stereo not drawn) [Example 2]
Result: 1.59

----------
target: DR1Dw1 (Homo sapiens, UniProt P01903+P01911, A100R/D57E/F55L/F60I/F76Y/I96L/L162R/M171V/P40L/Q125E/R42F/V115G/Y59C); construct: these are Drosophila transmembrane DR; made in house; host or cells: Drosophila (cells); assay: Inhibition of biotinylated RMBP 90-102 peptide binding to MHC class II DR1 (europium-streptavidin capture assay); conditions: incubation at 37° C. for 20 min, 0.3 nM biotinylated RMBP 90-102, 1.25 nM DR1Dw1, pH 6.5, read-out: IC50 /μM @ 20'
measured.quantity: log10 IC50 (log10 of the value in µM)
In our notation, the value equals log10 of IC50 in µM.

Q: I have this compound here, CCCC(NC(=O)C(CCCCN)NC(=O)CC(C)c1ccccc1)C(=O)NC(CC(C)C)C(N)=O (stereo not drawn) , and I need its recorded log10 IC50.
Result: -0.80

Q: Entry under review: CCCC(NC(=O)C(Cc1cccnc1)NCCCC1CCCCC1)C(=O)NC1CCCCNC1=O (stereo not drawn) . Reported log10 IC50?
Result: -0.68

Q: Quick one: log10 IC50 of CCCC(NC(=O)C(C)(C)NCCCC1CCCCC1)C(=O)NC(CC(C)C)C(N)=O (stereo not drawn) ?
Result: -0.59

Q: Param item = CCCC(NC(=O)C(CCCCN)NCCCC1CCCCC1)C(=O)NN(CC(C)C)C(=O)OCC (stereo not drawn) ; retrieve measured log10 IC50.
Result: -0.82

Q: Need log10 IC50 of CCC[C@H](NC(=O)[C@H](CCCCN)NC(=O)C=Cc1ccccc1C)C(=O)N[C@@H](CC(C)C)C(N)=O [Example 13, α-[2-methylcinnamoyl]-Lys-Nva-Leu-NH2] , thanks.
Result: -0.60

Q: Fill in: log10 IC50 of CCCC(NC(=O)C(CCCCN)NCCCC1CCCCC1)C(=O)NC(CC(C)C)C(N)=O (stereo not drawn) [Example 40, α-[3-Cyclohexylpropyl]-Lys-Nva-Leu-NH2] is ___
Result: -2.28

Q: Return reported log10 IC50; argument: CCCCN(NC(=O)C(CCC)NC(=O)C(CCCCN)NCC1CCc2ccccc2C1)C(=O)OCC (stereo not drawn)
Result: -1.52

Q: So what's the measured log10 IC50 for this one? CCCC(NC(=O)C(CCCCN)NC(=O)CC(C)C1CCCCC1)C(=O)NC(CC(C)C)C(N)=O (stereo not drawn)
Result: -1.40

Q: Reported log10 IC50, compound CCCCN(NC(=O)C(CCC)NC(=O)C(CCCCN)NCCCC1CCCCC1)C(=O)OCC (stereo not drawn) : ____
Result: -1.34
